Entry source: PubChem BioAssay AID2060616

Quick reference: pIC50 of the listed items.
# Tested on: 377384-186-R-J1-PDC complex spheroid viability
# PROTOCOL_NOTES: Anticancer human tumor 377384-186-R-J1-PDC patient-derived pancreatic carcinoma cell line growth inhibition [CLK]
# EXPERIMENTAL_SETUP: curve of first compound; second compound 1 µM
pIC50: −log10 of the molar value.

MOLECULE	TARGET_UNDER_TEST	RESULT
CC(C)CC(NC(=O)C(Cc1ccccc1)NC(=O)c1cnccn1)B(O)O (configuration not stated) + CNC(=O)c1ccc(Nc2nc(OC3CCCC3)c3c(-c4ccc5nc(C)oc5c4)c[nH]c3n2)c(OC)c1	377384-186-R-J1-PDC complex spheroid viability	> 9.02

We next turn to a different molecule, shown below.
[Q] Report pIC50 for CC1(C)CCC(CN2CCN(c3ccc(C(=O)NS(=O)(=O)c4ccc(NCC5CCOCC5)c([N+](=O)[O-])c4)c(Oc4cnc5[nH]ccc5c4)c3)CC2)=C(c2ccc(Cl)cc2)C1 + CNC(=O)c1ccc(Nc2nc(OC3CCCC3)c3c(-c4ccc5nc(C)oc5c4)c[nH]c3n2)c(OC)c1 tested on 377384-186-R-J1-PDC complex spheroid viability.
[A] > 7.50

====

# System: 377384-186-R-J1-PDC complex spheroid viability
# PROTOCOL_NOTES: Anticancer human tumor 377384-186-R-J1-PDC cell line growth inhibition [CLK];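 further: spheroids exposed to agents for 7 days before reading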;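 on viability, T/C: luminescence signal used as a stand-in for viable cells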
# EXPERIMENTAL_SETUP: second compound 0.1 µM; first compound 3.16 µM; stronger effect = lower value
Quick reference: viability, T/C of the listed items.
Only the number, expressed in %, is required.

MOLECULE	SCALE_UNIT	viability, T/C
C#Cc1c(F)ccc2cc(O)cc(-c3ncc4c(N5CC6CCC(C5)N6)nc(OCC56CCCN5CC(F)C6)nc4c3F)c12 (stereo not given) + CNC(=O)c1ccc(Nc2nc(OC3CCCC3)c3c(-c4ccc5nc(C)oc5c4)c[nH]c3n2)c(OC)c1	%	2.7
O=c1[nH]cc(F)c(=O)[nH]1 + CN1CCN(c2cc(C(=O)Nc3cc4cc(-c5cnn(C)c5)ccc4cn3)ccn2)CC1	%	65.4
O=c1[nH]cc(F)c(=O)[nH]1 + CNC(=O)c1ccc(Nc2nc(OC3CCCC3)c3c(-c4ccc5nc(C)oc5c4)c[nH]c3n2)c(OC)c1	%	41.6

[Q] GET /values?readout=viability, T/C&item= CC(=O)O[C@H]1C(=O)[C@@]2(C)[C@H]([C@H](OC(=O)c3ccccc3)[C@]3(O)C[C@H](OC(=O)[C@H](O)[C@@H](NC(=O)c4ccccc4)c4ccccc4)C(C)=C1C3(C)C)[C@]1(OC(C)=O)CO[C@@H]1C[C@@H]2O + CNC(=O)c1ccc(Nc2nc(OC3CCCC3)c3c(-c4ccc5nc(C)oc5c4)c[nH]c3n2)c(OC)c1
[A] 28.9

[Q] Also Nc1ccccc1NC(=O)c1ccc(CNC(=O)OCc2cccnc2)cc1 + CNC(=O)c1ccc(Nc2nc(OC3CCCC3)c3c(-c4ccc5nc(C)oc5c4)c[nH]c3n2)c(OC)c1 ?
[A] 12.3

[Q] Also Nc1ccn(C2OC(CO)C(O)C2(F)F)c(=O)n1 (stereo not given) + CNC(=O)c1ccc(Nc2nc(OC3CCCC3)c3c(-c4ccc5nc(C)oc5c4)c[nH]c3n2)c(OC)c1 ?
[A] 2.66

[Q] Also COC1C=CCC(C)C(C)S(=O)(=O)NC(=O)c2ccc3c(c2)N(CC2CCC21)CC1(CCCc2cc(Cl)ccc21)CO3 (stereo not given) + CNC(=O)c1ccc(Nc2nc(OC3CCCC3)c3c(-c4ccc5nc(C)oc5c4)c[nH]c3n2)c(OC)c1 ?
[A] 60

[Q] Also CC1COCCN1c1cc(C2(S(C)(=N)=O)CC2)nc(-c2ccnc3[nH]ccc23)n1 (stereo not given) + CN1CCN(c2cc(C(=O)Nc3cc4cc(-c5cnn(C)c5)ccc4cn3)ccn2)CC1 ?
[A] 33.1

[Q] Also CC(CO)NC(=O)c1cc(-c2ccc(Cl)cc2)nn(-c2cnn(C)c2)c1=O (stereo not given) + CN1CCN(c2cc(C(=O)Nc3cc4cc(-c5cnn(C)c5)ccc4cn3)ccn2)CC1 ?
[A] 77.7

[Q] Also Nc1ccccc1NC(=O)c1ccc(CNC(=O)OCc2cccnc2)cc1 + CN1CCN(c2cc(C(=O)Nc3cc4cc(-c5cnn(C)c5)ccc4cn3)ccn2)CC1 ?
[A] 17.7

[Q] Also COc1cccc2c1C(=O)c1c(O)c3c(c(O)c1C2=O)CC(O)(C(=O)CO)CC3OC1CC(N)C(O)C(C)O1 (stereo not given) + CNC(=O)c1ccc(Nc2nc(OC3CCCC3)c3c(-c4ccc5nc(C)oc5c4)c[nH]c3n2)c(OC)c1 ?
[A] 3.75

[Q] Also CCCS(=O)(=O)Nc1ccc(F)c(C(=O)c2c[nH]c3ncc(-c4ccc(Cl)cc4)cc23)c1F + CN1CCN(c2cc(C(=O)Nc3cc4cc(-c5cnn(C)c5)ccc4cn3)ccn2)CC1 ?
[A] 97.1

[Q] Also CC(Nc1ccc2c(c1)OCCn1cc(N3C(=O)OCC3C(F)F)nc1-2)C(N)=O (stereo not given) + CNC(=O)c1ccc(Nc2nc(OC3CCCC3)c3c(-c4ccc5nc(C)oc5c4)c[nH]c3n2)c(OC)c1 ?
[A] 33.4

[Q] Also CC(CO)NC(=O)c1cc(-c2ccc(Cl)cc2)nn(-c2cnn(C)c2)c1=O (stereo not given) + CNC(=O)c1ccc(Nc2nc(OC3CCCC3)c3c(-c4ccc5nc(C)oc5c4)c[nH]c3n2)c(OC)c1 ?
[A] 53.1

[Q] Also C=C(F)C(=O)N1CCN(c2nc(OCC3CCCN3C)nc3c2CCN(c2cccc4cccc(Cl)c24)C3)CC1CC#N (stereo not given) + CNC(=O)c1ccc(Nc2nc(OC3CCCC3)c3c(-c4ccc5nc(C)oc5c4)c[nH]c3n2)c(OC)c1 ?
[A] 23.1

[Q] Also C#Cc1c(F)ccc2cc(O)cc(-c3ncc4c(N5CC6CCC(C5)N6)nc(OCC56CCCN5CC(F)C6)nc4c3F)c12 (stereo not given) + CN1CCN(c2cc(C(=O)Nc3cc4cc(-c5cnn(C)c5)ccc4cn3)ccn2)CC1 ?
[A] 1.86

[Q] Also O=C(c1cc(Cc2n[nH]c(=O)c3ccccc23)ccc1F)N1CCN(C(=O)C2CC2)CC1 + CN1CCN(c2cc(C(=O)Nc3cc4cc(-c5cnn(C)c5)ccc4cn3)ccn2)CC1 ?
[A] 63.3

[Q] Also COC1C=CCC(C)C(C)S(=O)(=O)NC(=O)c2ccc3c(c2)N(CC2CCC21)CC1(CCCc2cc(Cl)ccc21)CO3 (stereo not given) + CN1CCN(c2cc(C(=O)Nc3cc4cc(-c5cnn(C)c5)ccc4cn3)ccn2)CC1 ?
[A] 76.8

[Q] Also CC1(C)CCC(CN2CCN(c3ccc(C(=O)NS(=O)(=O)c4ccc(NCC5CCOCC5)c([N+](=O)[O-])c4)c(Oc4cnc5[nH]ccc5c4)c3)CC2)=C(c2ccc(Cl)cc2)C1 + CNC(=O)c1ccc(Nc2nc(OC3CCCC3)c3c(-c4ccc5nc(C)oc5c4)c[nH]c3n2)c(OC)c1 ?
[A] 36.4

[Q] Also O=C(c1cc(Cc2n[nH]c(=O)c3ccccc23)ccc1F)N1CCN(C(=O)C2CC2)CC1 + CNC(=O)c1ccc(Nc2nc(OC3CCCC3)c3c(-c4ccc5nc(C)oc5c4)c[nH]c3n2)c(OC)c1 ?
[A] 38.3
